// provenance: paper PMC6602471

Target: ETS1 (Homo sapiens) (UniProt P14921)
Sequence (P14921 whole entry, looked up): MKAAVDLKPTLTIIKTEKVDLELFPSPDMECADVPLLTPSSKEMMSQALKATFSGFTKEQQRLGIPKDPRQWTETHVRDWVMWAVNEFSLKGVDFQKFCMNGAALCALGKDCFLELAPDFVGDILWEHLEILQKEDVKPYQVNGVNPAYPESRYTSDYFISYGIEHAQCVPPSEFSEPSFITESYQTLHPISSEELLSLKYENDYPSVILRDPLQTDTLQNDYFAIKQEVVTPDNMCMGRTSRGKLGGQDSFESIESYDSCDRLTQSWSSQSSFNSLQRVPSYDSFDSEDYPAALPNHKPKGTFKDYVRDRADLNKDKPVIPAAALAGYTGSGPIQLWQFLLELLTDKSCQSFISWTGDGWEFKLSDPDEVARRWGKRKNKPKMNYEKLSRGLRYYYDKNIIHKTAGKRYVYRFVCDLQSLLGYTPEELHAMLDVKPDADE
Assay: PBM
Conditions: Custom protein-binding microarray; buffer, salt, pH and temperature not given in the material
Measured binding signal accompanies every entry in the list below.
Respond with the bare value in log signal.

Some solved cases for reference:
{"residues": "GGAAAAAGGCCCAGGGTAACACCGGAAGTGGGCTTAGTCTTGATTCGCTTGACGCTGCTG (double strand) [seq04_wt0]", "units_text": "log signal", "binding signal": 12}
{"residues": "CGGAAGTGTCGTAAACGTCGGATATTCGGTTCTTCTGTCTTGATTCGCTTGACGCTGCTG (double strand) [seq01_p26 C>T]", "units_text": "log signal", "binding signal": 8.55}
{"residues": "CGGAAGTGTCGTAAACGTCGGATGTCCGGTTCTTCTGTCTTGATTCGCTTGACGCTGCTG (double strand) [seq01_p24 A>G]", "units_text": "log signal", "binding signal": 9.65}
{"residues": "CGGAAGTGTCGTAAACGTCGGATATCCGTTTCTTCTGTCTTGATTCGCTTGACGCTGCTG (double strand) [seq01_p29 G>T]", "units_text": "log signal", "binding signal": 9.45}
{"residues": "CGGAAGTGTCGTAAACGTCGGATTTCCGGTTCTTCTGTCTTGATTCGCTTGACGCTGCTG (double strand) [seq01_p24 A>T]", "units_text": "log signal", "binding signal": 12.5}

# sequence CGGAAGTGTCGTAAACGTCGGATAACCGGTTCTTCTGTCTTGATTCGCTTGACGCTGCTG (double strand) [seq01_p25 T>A] ; its binding signal = 8.34

Value of binding signal reported for the sequence CGGAAGTGTCGTAAACGTCGGATATACGGTTCTTCTGTCTTGATTCGCTTGACGCTGCTG (double strand) [seq01_p26 C>A] is 9.21

---

Collected binding signal values appear next to each entry.
Molecular target: ETS1 (Homo sapiens) (UniProt P14921)
Sequence (P14921 whole entry, looked up): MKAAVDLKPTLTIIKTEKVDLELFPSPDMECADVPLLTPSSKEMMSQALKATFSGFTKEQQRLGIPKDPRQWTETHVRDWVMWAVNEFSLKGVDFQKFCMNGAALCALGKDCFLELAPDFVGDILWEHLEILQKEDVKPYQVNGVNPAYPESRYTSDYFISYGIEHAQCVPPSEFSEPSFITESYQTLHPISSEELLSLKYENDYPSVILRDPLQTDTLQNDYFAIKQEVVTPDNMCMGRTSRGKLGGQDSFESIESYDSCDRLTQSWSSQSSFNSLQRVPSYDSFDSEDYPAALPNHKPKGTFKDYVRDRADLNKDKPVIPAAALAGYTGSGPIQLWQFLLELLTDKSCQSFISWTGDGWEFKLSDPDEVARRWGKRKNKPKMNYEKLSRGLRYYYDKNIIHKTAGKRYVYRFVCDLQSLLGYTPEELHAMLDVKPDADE
Experiment: PBM
Conditions: Custom protein-binding microarray; buffer, salt, pH and temperature not given in the material
Just the number in log signal, nothing appended.

Consider the reported binding signal for these sequences:
{"residues": "CGGAAGTGTCGTAAACGTCGGACATCCGGTTCTTCTGTCTTGATTCGCTTGACGCTGCTG (double strand) [seq01_p23 T>C]", "binding signal / log signal": 12.6}
{"residues": "CGGAAGTGTCGTAAACGTCGGCTATCCGGTTCTTCTGTCTTGATTCGCTTGACGCTGCTG (double strand) [seq01_p22 A>C]", "binding signal / log signal": 8.79}
{"residues": "CGGAAGTGTCGTAAACGTCGGAGATCCGGTTCTTCTGTCTTGATTCGCTTGACGCTGCTG (double strand) [seq01_p23 T>G]", "binding signal / log signal": 8.83}
{"residues": "CGGAAGTGTCGTAAACGTCGGATATGCGGTTCTTCTGTCTTGATTCGCTTGACGCTGCTG (double strand) [seq01_p26 C>G]", "binding signal / log signal": 8.38}
{"residues": "CGGAAGTGTCGTAAACGTCGGAAATCCGGTTCTTCTGTCTTGATTCGCTTGACGCTGCTG (double strand) [seq01_p23 T>A]", "binding signal / log signal": 9.71}

Sample CGGAAGTGTCGTAAACGTCGGATATCCCGTTCTTCTGTCTTGATTCGCTTGACGCTGCTG (double strand) [seq01_p28 G>C] ; binding signal observed: 8.7

Lab book: binding signal of CGGAAGTGTCGTAAACGTCGGATATCCGGTTCTTCTGTCTTGATTCGCTTGACGCTGCTG (double strand) [seq01_wt0] noted as 11.9

For record CGGAAGTGTCGTAAACGTCGGATCTCCGGTTCTTCTGTCTTGATTCGCTTGACGCTGCTG (double strand) [seq01_p24 A>C] the listed binding signal is 8.47

The sequence identified as CGGAAGTGTCGTAAACGTCGGATATCCGGATCTTCTGTCTTGATTCGCTTGACGCTGCTG (double strand) [seq01_p30 T>A] registered its binding signal at 9.94

CGGAAGTGTCGTAAACGTCGGATATCAGGTTCTTCTGTCTTGATTCGCTTGACGCTGCTG (double strand) [seq01_p27 C>A] yielded binding signal of 8.51

Record CGGAAGTGTCGTAAACGTCGGATATCCTGTTCTTCTGTCTTGATTCGCTTGACGCTGCTG (double strand) [seq01_p28 G>T] , field binding signal: 10.1

binding signal reading for CGGAAGTGTCGTAAACGTCGGATATCTGGTTCTTCTGTCTTGATTCGCTTGACGCTGCTG (double strand) [seq01_p27 C>T] : 8.37

Quick note, binding signal for CGGAAGTGTCGTAAACGTCGGATACCCGGTTCTTCTGTCTTGATTCGCTTGACGCTGCTG (double strand) [seq01_p25 T>C] landed at 8.31
